Target: porcine pancreatic lipase (Sus scrofa, UniProt P00591)
Construct: gene PNLIP
Sequence (P00591 1-450): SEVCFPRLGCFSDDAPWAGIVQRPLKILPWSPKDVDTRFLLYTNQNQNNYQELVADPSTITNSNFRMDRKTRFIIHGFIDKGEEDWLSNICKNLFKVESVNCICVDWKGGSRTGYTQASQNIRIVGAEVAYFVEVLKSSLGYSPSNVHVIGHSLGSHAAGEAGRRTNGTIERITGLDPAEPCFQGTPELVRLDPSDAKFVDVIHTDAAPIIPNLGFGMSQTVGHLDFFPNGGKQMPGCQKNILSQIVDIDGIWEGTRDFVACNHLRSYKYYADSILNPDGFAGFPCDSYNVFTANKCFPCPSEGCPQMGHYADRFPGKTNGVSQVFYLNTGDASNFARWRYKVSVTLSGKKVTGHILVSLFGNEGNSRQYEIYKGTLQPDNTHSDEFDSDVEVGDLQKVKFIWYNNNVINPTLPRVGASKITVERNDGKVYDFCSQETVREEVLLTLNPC
Test: colorimetric lipase activity assay (Lipase Kit S, BLAB/DTNB, […] nm) with porcine pancreas lipase Type II
Assay type: biochemical
Conditions: read-out: IC50
experimental_readout: IC50

1. CCCCCCCC/C=C\CCCCCCCC(=O)O; 41.4 µM
